Test system: HEK293 cells overexpressing human a-syn (WT)
Test: Cytotoxicity screen of lentiviral 7-mer peptide library, Alpha Syn (WT) cells under MG132
Assay type: cell-based
If the reported Slope Norm Reads equals or exceeds 0.09, assign criterion met. If not, assign criterion not met.

Task: Please tell me: is the substance RAPSCHL [7-mer library hit, Alpha Syn screen] at or over 0.09 in terms of Slope Norm Reads?
Output: criterion met

Task: Please tell me: is the substance CMVHSAG [7-mer library hit, Alpha Syn screen] at or over 0.09 in terms of Slope Norm Reads?
Output: criterion not met

Task: Please tell me: is the substance DWLMVNL [7-mer library hit, Alpha Syn screen] at or over 0.09 in terms of Slope Norm Reads?
Output: criterion met

Task: Please tell me: is the substance AAYNLCA [7-mer library hit, Alpha Syn screen] at or over 0.09 in terms of Slope Norm Reads?
Output: criterion not met

Hey, just so you know, these numbers are from patent US20250051391A1.
